Data credit: ChEMBL document CHEMBL1129525

molecular target: Bifunctional dihydrofolate reductase-thymidylate synthase (Toxoplasma gondii)
Sequence (Q07422 whole entry): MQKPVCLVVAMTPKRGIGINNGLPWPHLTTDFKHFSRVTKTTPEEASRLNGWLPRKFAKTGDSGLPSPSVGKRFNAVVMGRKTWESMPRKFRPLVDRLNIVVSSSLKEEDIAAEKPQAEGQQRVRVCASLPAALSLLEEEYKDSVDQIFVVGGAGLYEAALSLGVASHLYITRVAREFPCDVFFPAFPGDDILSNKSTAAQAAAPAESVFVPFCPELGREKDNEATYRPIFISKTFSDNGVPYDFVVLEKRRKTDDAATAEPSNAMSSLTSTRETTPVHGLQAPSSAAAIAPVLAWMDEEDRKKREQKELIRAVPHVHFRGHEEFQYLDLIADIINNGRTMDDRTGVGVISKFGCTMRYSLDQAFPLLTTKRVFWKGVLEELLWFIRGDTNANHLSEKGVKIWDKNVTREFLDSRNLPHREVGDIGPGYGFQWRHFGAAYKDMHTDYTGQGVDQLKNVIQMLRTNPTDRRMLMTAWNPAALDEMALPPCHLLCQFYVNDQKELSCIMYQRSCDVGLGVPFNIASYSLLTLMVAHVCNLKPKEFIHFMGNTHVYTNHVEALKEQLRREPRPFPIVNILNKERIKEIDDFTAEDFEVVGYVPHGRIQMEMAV
Rule: measured IC50 below 30 nM gets class 1; anything equal to or greater than 30 nM gets class 0.

See these solved cases before continuing.
input-smiles	label-class
Cc1cc(Cl)ccc1NCc1ccc2nc(N)nc(N)c2c1	class 0
COc1ccc(SCc2cnc3nc(N)nc(N)c3n2)cc1	class 0
Cc1c(CNc2cccc3ccccc23)cnc2nc(N)nc(N)c12	class 0
COc1ccc(N(C)Cc2cnc3nc(N)nc(N)c3c2C)c(OC)c1	class 0
Cc1cccc(SCc2cnc3nc(N)nc(N)c3n2)c1	class 0
Nc1nc(N)c2nc(CCc3cccc4ccccc34)cnc2n1	class 0
COc1ccc(OC)c(NCc2cnc3nc(N)nc(N)c3c2C)c1	class 1
Cc1c(CCc2cccc3ccccc23)cnc2nc(N)nc(N)c12	class 1
Cc1c(CNc2ccc(Cl)cc2)cnc2nc(N)nc(N)c12	class 0
Cc1ccc(SCc2cnc3nc(N)nc(N)c3n2)cc1	class 0

Input line: is_below(IC50, 30 nM) for "COc1cc(NCc2cnc3nc(N)nc(N)c3c2)cc(OC)c1OC" ?
Output line: class 0
